Each entry below carries its recorded IC50.
Target: Tumour suppressor p53/oncoprotein Mdm2 (Homo sapiens)
Assay type: protein assay

CCCN1C(=O)CC[C@H](c2cccc(Cl)c2)[C@H]1c1ccc(Cl)cc1 (racemic)
> 30 µM
CC[C@@H](C(=O)OC(C)(C)C)N1C(=O)[C@@](C)(Cc2nnn[nH]2)C[C@H](c2cccc(Cl)c2)[C@H]1c1ccc(Cl)cc1
0.009 µM
CC(C)CN1C(=O)CC[C@H](c2cccc(Cl)c2)[C@H]1c1ccc(Cl)cc1 (racemic)
> 30 µM

Exam item: Field request: IC50 | item: "O=C1CC[C@H](c2cccc(Cl)c2)[C@@H](c2ccc(Cl)cc2)N1CC1CC1"
Marked response: > 30 µM

* * *

Molecular target: Tumour suppressor p53/oncoprotein Mdm2 (Homo sapiens, UniProt Q00987)
Sequence (P04637 whole entry): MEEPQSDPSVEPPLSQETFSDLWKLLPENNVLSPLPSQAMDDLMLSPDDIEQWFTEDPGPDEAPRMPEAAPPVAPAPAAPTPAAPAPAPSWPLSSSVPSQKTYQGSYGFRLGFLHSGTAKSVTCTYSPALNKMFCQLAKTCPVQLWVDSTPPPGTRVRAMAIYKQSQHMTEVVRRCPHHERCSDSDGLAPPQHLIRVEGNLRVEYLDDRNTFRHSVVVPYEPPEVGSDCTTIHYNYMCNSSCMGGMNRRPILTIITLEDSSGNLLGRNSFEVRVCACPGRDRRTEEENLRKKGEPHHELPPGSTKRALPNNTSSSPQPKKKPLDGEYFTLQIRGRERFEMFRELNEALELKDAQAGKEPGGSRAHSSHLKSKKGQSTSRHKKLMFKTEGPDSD
Sequence (Q00987 whole entry): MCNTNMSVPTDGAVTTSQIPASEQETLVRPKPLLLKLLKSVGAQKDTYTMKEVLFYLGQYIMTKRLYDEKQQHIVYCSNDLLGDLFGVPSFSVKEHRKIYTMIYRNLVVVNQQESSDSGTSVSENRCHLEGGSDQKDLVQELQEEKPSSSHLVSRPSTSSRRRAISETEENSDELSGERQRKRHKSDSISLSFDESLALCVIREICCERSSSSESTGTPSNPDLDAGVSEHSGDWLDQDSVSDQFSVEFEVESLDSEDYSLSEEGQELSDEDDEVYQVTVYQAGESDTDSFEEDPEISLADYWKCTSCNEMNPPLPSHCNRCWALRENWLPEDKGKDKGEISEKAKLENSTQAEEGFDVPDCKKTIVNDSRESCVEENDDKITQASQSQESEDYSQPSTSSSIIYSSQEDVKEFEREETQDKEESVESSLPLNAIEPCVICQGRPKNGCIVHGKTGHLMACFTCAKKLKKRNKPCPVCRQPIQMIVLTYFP
Assay type: protein assay
measure name: IC50 (nM)
# output: bare number, implied unit nM

CCCN1C(=O)CC[C@H](c2cccc(Cl)c2)[C@H]1c1ccc(Cl)cc1 (racemic)
1900

Exam item: Field request: IC50 | item: CC(C)CN1C(=O)CC[C@H](c2cccc(Cl)c2)[C@H]1c1ccc(Cl)cc1 (racemic)
Marked response: 2300

Exam item: Field request: IC50 | item: "O=C(O)CC[C@@H]1C[C@H](c2cccc(Cl)c2)[C@@H](c2ccc(Cl)cc2)N(CC2CC2)C1=O"
Marked response: 340

Exam item: Field request: IC50 | item: COC(=O)CN1C(=O)CC[C@H](c2cccc(Cl)c2)[C@H]1c1ccc(Cl)cc1 (racemic)
Marked response: 5500

Exam item: Field request: IC50 | item: "O=C(O)CC[C@H]1C[C@H](c2cccc(Cl)c2)[C@@H](c2ccc(Cl)cc2)N(CC2CC2)C1=O"
Marked response: 570

Exam item: Field request: IC50 | item: "CC[C@@H](C(=O)OC(C)(C)C)N1C(=O)[C@@](C)(Cc2nnn[nH]2)C[C@H](c2cccc(Cl)c2)[C@H]1c1ccc(Cl)cc1"
Marked response: 0.9

Exam item: Field request: IC50 | item: CCC[C@@H](C(=O)OCC)N1C(=O)CC[C@H](c2cccc(Cl)c2)[C@H]1c1ccc(Cl)cc1 (racemic)
Marked response: 1400

Exam item: Field request: IC50 | item: "N#CC[C@H]1C[C@H](c2cccc(Cl)c2)[C@@H](c2ccc(Cl)cc2)N(CC2CC2)C1=O"
Marked response: 2340

Exam item: Field request: IC50 | item: CCOC(=O)[C@H](C)N1C(=O)CC[C@H](c2cccc(Cl)c2)[C@H]1c1ccc(Cl)cc1 (racemic)
Marked response: 1700

Exam item: Field request: IC50 | item: O=C1CC[C@H](c2cccc(Cl)c2)[C@@H](c2ccc(Cl)cc2)N1CC1CC1 (racemic)
Marked response: 1500

* * *

Each entry below carries its recorded pIC50.
Target: Tumour suppressor p53/oncoprotein Mdm2 (Homo sapiens, UniProt Q00987)
Type: protein assay
pIC50: −log10 of the molar value.

Below: 2 molecules and their reported pIC50.
O=C1CC[C@@H](c2cccc(Cl)c2)[C@H](c2ccc(Cl)cc2)N1CC1CC1
< 4.52
N#CC[C@H]1C[C@H](c2cccc(Cl)c2)[C@@H](c2ccc(Cl)cc2)N(CC2CC2)C1=O
< 4.52

Query molecule follows.
Exam item: What pIC50 appears in the records for this molecule with Tumour suppressor p53/oncoprotein Mdm2 (Homo sapiens, UniProt Q00987)? COC(=O)CN1C(=O)CC[C@H](c2cccc(Cl)c2)[C@H]1c1ccc(Cl)cc1 (racemic)
Marked response: < 4.52
